Test system: SR leukemia
Method Summary: NCI tumour cell line growth inhibition, 48 h
Entries annotated with measured TGI

Known results for molecules:
Molecule | Measured On | TGI
CN(C)CC1CCCC(CN2CCCCC2)C1=O (configuration not stated) | SR leukemia | > 100 µM
COc1ccc(CCN2CCCN3C2=Nc2ccccc2S3(=O)=O)cc1 | SR leukemia | > 100 µM
NC(=O)NC(=O)CCC(NS(=O)(=O)c1ccccc1)C(=O)NC(N)=O (configuration not stated) | SR leukemia | > 100 µM

So what's the measured TGI for this one? C=C1C(=O)OC2/C=C(\C)C3OC3/C=C(/C(=O)OC)C(O)C(OC(=O)C3(C)OC3C)C12 (configuration not stated) 3.05 µM

So what's the measured TGI for this one? CCCc1cc(=O)oc2c(C=O)c(O)cc(O)c12 58.1 µM

So what's the measured TGI for this one? C[C@@H](N)C1CCC(C(=O)Nc2ccncc2)CC1 (some centres not stated) > 100 µM

So what's the measured TGI for this one? C=CCCOC(=O)CO[N+](=O)[O-] > 100 µM

So what's the measured TGI for this one? Cc1ccc2c(c1)C(C)Cc1c(ncnc1-n1cnc3cc(C)ccc31)N2C (configuration not stated) 13.4 µM

So what's the measured TGI for this one? CCn1ncc2c1nc(-c1ccccc1)c[n+]2[O-] > 100 µM

So what's the measured TGI for this one? NC(=O)C1c2ccccc2C=Cc2ccccc21 > 100 µM

So what's the measured TGI for this one? Cc1ncc(C(=O)Nc2ccc(CN3CCN(C)CC3)c(C(F)(F)F)c2)cc1C#Cc1cnc(N)c2cnccc12 1.92 µM

So what's the measured TGI for this one? Cc1c(-c2ccccc2)c(=O)oc2ccc(Cl)cc12 > 100 µM

So what's the measured TGI for this one? CCOC(=O)CC(=O)C(=O)NNC1=NCCN1 > 100 µM

So what's the measured TGI for this one? C[C@H](N)C(=O)N[C@@H]1[C@H]2C(=C(O)C[C@@H](O)[C@@H]2O)C(=O)O[C@]1(C)C(Cl)Cl 7.55 µM
